target: TRPA1 (Homo sapiens, UniProt O75762, C641A); construct: hTRPA1 mutant expressed in HEK293 cells; experiment: whole-cell patch clamp dose-response
Sequence (O75762 whole entry C641A): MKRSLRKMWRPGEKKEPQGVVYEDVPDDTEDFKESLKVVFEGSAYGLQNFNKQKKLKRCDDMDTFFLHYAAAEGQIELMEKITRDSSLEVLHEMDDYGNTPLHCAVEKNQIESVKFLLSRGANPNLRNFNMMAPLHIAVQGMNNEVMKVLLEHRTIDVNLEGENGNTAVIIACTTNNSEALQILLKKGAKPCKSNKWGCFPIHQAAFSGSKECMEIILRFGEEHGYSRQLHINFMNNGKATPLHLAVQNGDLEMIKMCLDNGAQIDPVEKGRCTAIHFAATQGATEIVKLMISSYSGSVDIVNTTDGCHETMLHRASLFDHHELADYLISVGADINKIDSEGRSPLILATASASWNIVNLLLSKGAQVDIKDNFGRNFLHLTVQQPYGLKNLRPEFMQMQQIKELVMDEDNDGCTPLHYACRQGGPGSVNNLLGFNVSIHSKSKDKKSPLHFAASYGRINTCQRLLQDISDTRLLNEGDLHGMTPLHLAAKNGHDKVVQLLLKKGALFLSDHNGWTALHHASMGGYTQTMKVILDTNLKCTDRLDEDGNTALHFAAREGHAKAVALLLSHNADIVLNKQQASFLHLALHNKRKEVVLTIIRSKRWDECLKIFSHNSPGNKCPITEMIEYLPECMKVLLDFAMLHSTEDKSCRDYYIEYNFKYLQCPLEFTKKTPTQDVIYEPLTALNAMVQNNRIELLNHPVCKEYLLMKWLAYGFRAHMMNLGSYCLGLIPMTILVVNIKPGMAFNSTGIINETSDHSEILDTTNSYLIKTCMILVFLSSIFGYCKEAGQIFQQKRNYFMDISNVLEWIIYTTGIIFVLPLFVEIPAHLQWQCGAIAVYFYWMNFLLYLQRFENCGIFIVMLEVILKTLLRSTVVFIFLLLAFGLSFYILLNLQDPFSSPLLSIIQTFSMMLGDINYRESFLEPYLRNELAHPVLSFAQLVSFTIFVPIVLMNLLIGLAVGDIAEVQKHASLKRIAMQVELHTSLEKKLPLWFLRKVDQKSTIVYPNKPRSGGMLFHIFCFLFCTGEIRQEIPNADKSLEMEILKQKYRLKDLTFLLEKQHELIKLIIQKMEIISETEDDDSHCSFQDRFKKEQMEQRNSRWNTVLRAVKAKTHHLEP
pEC50: −log10 of the molar value.

| compound | pEC50 |
| --- | --- |
| CCCCCCCCCC(=O)CC(O)S(=O)(=O)O (stereo not shown) [SH, sodium houttuyfonate] | 3.36 |

* * *

biological target: TRPA1 (Homo sapiens); construct: Human TRPA1 (NM_007332) expressed in HEK293T cells; assay: whole-cell and excised-patch (inside-out/outside-out) patch clamp, calcium imaging

| molecule | tested_target | EC50 [µM] |
| --- | --- | --- |
| CCCCCCCCCC(=O)CC(O)S(=O)(=O)O (stereo not shown) [SH, sodium houttuyfonate] | TRPA1 (Homo sapiens) | 343 |
